Test: Ratio of biodistributions in Athymic mice bearing human Tumor (TE671) xenografts in Tumor (T) and blood (B)
Assay type: ADME, organism-based
Details: mouse, read-out: Biodistribution ratio
quantityMeasured: Kp
Answers are plain numbers.

Request the reported Kp associated with `COC(=O)c1ccccc1-c1c2ccc(=N)cc-2oc2cc(N)ccc12.[125IH]`
0.63

----------
Experiment: Ratio of biodistributions in Athymic mice bearing human Tumor (KB) xenografts in Tumor (T) and blood (B)
Type: ADME, organism-based
Settings: mouse, read-out: Biodistribution ratio
quantityMeasured: Kp

Reported Kp for `COC(=O)c1ccccc1-c1c2ccc(=N)cc-2oc2cc(N)ccc12.[125IH]` : what is it?
0.36

The reported numbers originate from ChEMBL document CHEMBL1131575.
